# target-of-assay: Cyclin-dependent kinase 2/cyclin A (Homo sapiens) (UniProt P24941+P20248+P78396)
# protocol-summary: Inhibition of human Cyclin-dependent kinase 2 cyclin A3 at 10 uM
# Assay type: protein-complex assay
reported-endpoint: inhibition (%)

(P) Nc1cc(OCC2CC=CCC2)nc(N)n1 (centres undefined)
(Q) Nc1nc(N)c(C=O)c(OCC2CCCCC2)n1
Query string: Field: entry with larger inhibition (options P / Q ). Indicate which entry you chose by stating its label.
Result string: Q

(1) Nc1nc(N)c(C(=O)c2ccccc2)c(OCC2CCCCC2)n1
(2) CO/N=C/c1c(N)nc(N)nc1OCC1CCCCC1
(3) CCCCCCCOc1nc(N)nc(N)c1N=O
(4) CCCCCOc1nc(N)nc(N)c1N=O
Query string: Kindly order the items shown according to inhibition, from the highest value down. # list labels per requested ordering
Result string: 4, 3, 2, 1
